What Kd was measured for each of the following?
test system: Fab clone 3 (Fab 3) (synthetic), PDB:6B14_1+PDB:6B3K_2; experiment: filter binding
Express your answer in nM, writing the number without its unit.

Identify measured Kd corresponding to GUCCAGUAGGAACACUAUACUACUGGAUAAUCAAAGACAAAUCUGCCCGAAGGGCUUGAGAACAUCGAAACACGAUGCAGAGGUGGCAGCCUCCGGUGGGUUAAAACCCAACGUUCUCAACAAUAGUGA [WT-BLP]
28

Identify measured Kd corresponding to UGCGACCAUGGUGAGACCCGCCAUGGUCGC [N9RNA1 HP (AM HP)]
9

Identify measured Kd corresponding to GGCGACCAUGGAAACACCAUGGUCGC [WT-RNA HP (WT BL3-6 HP)]
25

====

What pKd was measured for each of the following?
system: Fab BL3-6 S97N (synthetic), PDB:6B14_1+PDB:6B14_2; experiment: filter binding
To interpret pKd, take it as minus log10 of a concentration measured in moles per litre.

Identify measured pKd corresponding to UGCGACCAUGGUGAGACCCGCCAUGGUCGC [N9RNA1 HP (AM HP)]
8.05

Identify measured pKd corresponding to GUCCAGUAGGAACACUAUACUACUGGAUAAUCAAAGACAAAUCUGCCCGAAGGGCUUGAGAACAUCGAAACACGAUGCAGAGGUGGCAGCCUCCGGUGGGUUAAAACCCAACGUUCUCAACAAUAGUGA [WT-BLP]
8.30

Identify measured pKd corresponding to GGCGACCAUGGAAACACCAUGGUCGC [WT-RNA HP (WT BL3-6 HP)]
7.89

====

What Kd was measured for each of the following?
test system: Fab clone 6 (synthetic), PDB:6B14_1+PDB:6B3K_2; experiment: filter binding
Express your answer in nM, writing the number without its unit.

Identify measured Kd corresponding to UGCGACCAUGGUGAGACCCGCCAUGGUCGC [N9RNA1 HP (AM HP)]
7

Identify measured Kd corresponding to GGCGACCAUGGAAACACCAUGGUCGC [WT-RNA HP (WT BL3-6 HP)]
52

Identify measured Kd corresponding to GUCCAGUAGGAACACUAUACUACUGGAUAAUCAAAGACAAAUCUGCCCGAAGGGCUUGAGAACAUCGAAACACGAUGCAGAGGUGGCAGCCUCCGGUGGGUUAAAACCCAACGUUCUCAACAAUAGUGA [WT-BLP]
54

====

tested on: Fab clone 15 (synthetic), PDB:6B14_1+PDB:6B3K_2; experiment: filter binding
MEASUREMENT_TYPE: pKd
To interpret pKd, take it as minus log10 of a concentration measured in moles per litre.

Provide pKd, system Fab clone 15 (synthetic), PDB:6B14_1+PDB:6B3K_2, entry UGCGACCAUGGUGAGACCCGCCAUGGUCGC [N9RNA1 HP (AM HP)]
8.00

Provide pKd, system Fab clone 15 (synthetic), PDB:6B14_1+PDB:6B3K_2, entry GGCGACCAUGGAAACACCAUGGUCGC [WT-RNA HP (WT BL3-6 HP)]
7.77

Provide pKd, system Fab clone 15 (synthetic), PDB:6B14_1+PDB:6B3K_2, entry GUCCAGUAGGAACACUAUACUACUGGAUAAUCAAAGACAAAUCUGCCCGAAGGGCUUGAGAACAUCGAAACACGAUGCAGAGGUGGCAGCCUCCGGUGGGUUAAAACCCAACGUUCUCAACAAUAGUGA [WT-BLP]
7.47
